compounds and their reported pKi
# Subject of test: CDK2/Cyclin A (Homo sapiens, UniProt P24941)
# Construct: made in house; host or cells: CDK2: insect cells (baculovirus); cyclin A: E. coli
# Experiment description: Inhibition of CDK2/Cyclin A retinoblastoma kinase activity (apparent Ki)
# Type: biochemical
# Experimental conditions: read-out: CDK2 Ki
pKi: −log10 of the molar value.

Recorded results for 5 compounds are shown here.
CCNCc1cncc(-c2ccc3[nH]nc(-c4nc(-c5ccccc5)c(C(=O)N5CCCC5)[nH]4)c3c2)c1C: 6.70 to 7.30
CCNCc1cncc(-c2ccc3[nH]nc(-c4nc(C(=O)O)c[nH]4)c3c2)c1C: 6.70 to 7.30
CCNCc1cncc(-c2ccc3[nH]nc(-c4ncc(C(=O)N5CCC6CCCCC6C5)[nH]4)c3c2)c1C (stereo not shown): > 7.30
CNCc1cncc(-c2ccc3[nH]nc(-c4nc(C)c[nH]4)c3c2)c1C: > 7.30
CCNCc1cncc(-c2ccc3[nH]nc(-c4ncc(C(=O)N(C)C5CCN(Cc6ccccc6)C5)[nH]4)c3c2)c1C (stereo not shown): > 7.30

Form: compound = CCNCc1cncc(-c2ccc3[nH]nc(-c4nc(C(=O)NC5CN6CCC5CC6)c[nH]4)c3c2)c1C (stereo in doubt) ; pKi = 6.70 to 7.30

Form: compound = `CCNCc1cncc(-c2ccc3[nH]nc(-c4nc(C(=O)NC(C)C)c[nH]4)c3c2)c1C` ; pKi = > 7.30

###

compounds and their reported pKi
# Subject of test: CDK2/Cyclin A (Homo sapiens, UniProt P24941)
# Construct: made in house; host or cells: CDK2: insect cells (baculovirus); cyclin A: E. coli
# Experiment description: Inhibition of CDK2/Cyclin A retinoblastoma kinase activity (apparent Ki)
# Format: biochemical
# Experimental conditions: read-out: CDK2 Ki
# Experimental: Cyclin-dependent kinase activity was measured by quantifying the enzyme-catalyzed, time-dependent incorporation of radioactive phosphate from [^32P]ATP or [^33P]ATP into a protein substrate. […] Radioactivity was quantified by exposing the dried membranes to a phosphorimager. Apparent Ki values were measured by assaying enzyme activity in the presence of different inhibitor compound concentrations and subtracting the background radioactivity measured in the absence of enzyme. […]
pKi: −log10 of the molar value.

Form: compound = `CCNCc1cncc(-c2ccc3[nH]nc(-c4nc(-c5ccccc5)c(C(=O)N5CCOCC5)[nH]4)c3c2)c1C` ; pKi = < 6.70

Form: compound = `CCNCc1cncc(-c2ccc3[nH]nc(-c4nc(C(=O)NCC)c[nH]4)c3c2)c1C` ; pKi = > 7.30

Form: compound = `CCNCc1cncc(-c2ccc3[nH]nc(-c4nc(-c5ccc(OC)c(OC)c5)c[nH]4)c3c2)c1C` ; pKi = > 7.30

###

compounds and their reported % Inhib @ 10 nM
# Tested on: Cyclin-dependent kinase
# Experiment description: Cyclin-dependent kinase inhibition, % inhibition at 10 nM (library Examples 99-270)
# Assay type: biochemical
# Experimental conditions: 10 nM compound

CCNCc1cncc(-c2ccc3[nH]nc(-c4ncc(C(=O)N(C)CCCN(C)C)[nH]4)c3c2)c1C: 30%
CCNCc1cncc(-c2ccc3[nH]nc(-c4ncc(C(=O)NCCOCCO)[nH]4)c3c2)c1C: 54%
CCNCc1cncc(-c2ccc3[nH]nc(-c4ncc(C(=O)NCC(F)(F)F)[nH]4)c3c2)c1C: 72%

Form: compound = `CCNCc1cncc(-c2ccc3[nH]nc(-c4ncc(C(=O)N5CCN(CCO)CC5)[nH]4)c3c2)c1C` ; % Inhib @ 10 nM = 40%

###

# Tested on: Cyclin-dependent kinase
# Experiment description: Cyclin-dependent kinase inhibition, % inhibition at 10 nM (library Examples 99-270)
# Assay type: biochemical
# Experimental conditions: 10 nM compound
Experimental readout: % Inhib @ 10 nM (%)
API: value field is a number in %; no unit string.

Form: molecule = CCNCc1cncc(-c2ccc3[nH]nc(-c4ncc(C(=O)N(C)CCS(C)(=O)=O)[nH]4)c3c2)c1C [Example 241] ; % Inhib @ 10 nM = 59

Form: molecule = CCNCc1cncc(-c2ccc3[nH]nc(-c4ncc(C(=O)N5CCN(CC(=O)N6CCCCC6)CC5)[nH]4)c3c2)c1C [Example 246] ; % Inhib @ 10 nM = 26

Form: molecule = CCNCc1cncc(-c2ccc3[nH]nc(-c4ncc(C(=O)N5CCC(S(C)(=O)=O)C5)[nH]4)c3c2)c1C (stereo not shown) [Example 240] ; % Inhib @ 10 nM = 71

Form: molecule = CCNCc1cncc(-c2ccc3[nH]nc(-c4ncc(C(=O)NCc5cc6cc[nH]c6cn5)[nH]4)c3c2)c1C [Example 215] ; % Inhib @ 10 nM = 72
